Details: in DMSO, 288.2 K
Experimental Readout: solubility (mole fraction)
One number for each entry.

Asked: # get_value(readout='solubility (mole fraction)', item= "Cl.NCCCC[C@H](N)C(=O)O" )
Given back: 0.0243

----------
Details: in ethylene glycol, 328.1 K
Experimental Readout: solubility (mole fraction)
Numbers only.

Asked: # get_value(readout='solubility (mole fraction)', item= "Cl.NCCCC[C@H](N)C(=O)O" )
Given back: 0.0377

----------
Conditions: in water, 317.9 K
Experimental Readout: solubility (mole fraction)
Answers are plain numbers.

Asked: # get_value(readout='solubility (mole fraction)', item= "Cl.NCCCC[C@H](N)C(=O)O" )
Given back: 0.0925

----------
Settings: in water, 323 K
Experimental Readout: solubility (mole fraction)
Answers are plain numbers.

Asked: # get_value(readout='solubility (mole fraction)', item= "Cl.NCCCC[C@H](N)C(=O)O" )
Given back: 0.102

----------
Details: in ethanol, 322.9 K
Experimental Readout: solubility (mole fraction)
One number for each entry.

Asked: # get_value(readout='solubility (mole fraction)', item= "Cl.NCCCC[C@H](N)C(=O)O" )
Given back: 1.76e-05

----------
Conditions: in ethylene glycol, 307.9 K
Experimental Readout: solubility (mole fraction)
Give bare numbers.

Asked: # get_value(readout='solubility (mole fraction)', item= "Cl.NCCCC[C@H](N)C(=O)O" )
Given back: 0.0259

----------
Settings: in ethylene glycol, 312.9 K
Experimental Readout: solubility (mole fraction)
Numbers only.

Asked: # get_value(readout='solubility (mole fraction)', item= "Cl.NCCCC[C@H](N)C(=O)O" )
Given back: 0.0298

----------
Details: in water, 308 K
Experimental Readout: solubility (mole fraction)
Answers are plain numbers.

Asked: # get_value(readout='solubility (mole fraction)', item= "Cl.NCCCC[C@H](N)C(=O)O" )
Given back: 0.0707

----------
Details: in ethylene glycol, 298.2 K
Experimental Readout: solubility (mole fraction)
One number for each entry.

Asked: # get_value(readout='solubility (mole fraction)', item= "Cl.NCCCC[C@H](N)C(=O)O" )
Given back: 0.0183

----------
Conditions: in DMSO, 293 K
Experimental Readout: solubility (mole fraction)
One number for each entry.

Asked: # get_value(readout='solubility (mole fraction)', item= "Cl.NCCCC[C@H](N)C(=O)O" )
Given back: 0.0301

----------
Details: in methanol, 327.8 K
Experimental Readout: solubility (mole fraction)
One number for each entry.

Asked: # get_value(readout='solubility (mole fraction)', item= "Cl.NCCCC[C@H](N)C(=O)O" )
Given back: 0.000637

----------
Details: in methanol, 308.1 K
Experimental Readout: solubility (mole fraction)

Asked: # get_value(readout='solubility (mole fraction)', item= "Cl.NCCCC[C@H](N)C(=O)O" )
Given back: 0.000433

----------
Details: in water, 328.2 K
Experimental Readout: solubility (mole fraction)
Give bare numbers.

Asked: # get_value(readout='solubility (mole fraction)', item= "Cl.NCCCC[C@H](N)C(=O)O" )
Given back: 0.111

----------
Conditions: in ethanol, 288.1 K
Experimental Readout: solubility (mole fraction)
Give bare numbers.

Asked: # get_value(readout='solubility (mole fraction)', item= "Cl.NCCCC[C@H](N)C(=O)O" )
Given back: 6.71e-06

----------
Conditions: in methanol, 303 K
Experimental Readout: solubility (mole fraction)

Asked: # get_value(readout='solubility (mole fraction)', item= "Cl.NCCCC[C@H](N)C(=O)O" )
Given back: 0.000368
